experiment: Photochromic response of test square polymerizates on an optical bench; format: physicochemical; conditions: measured over the first five (5) seconds of UV exposure, expressed on a per minute basis; test squares by method 1; 75°F (23.9°C)
Outcome: true for ΔOD/MIN SENSITIVITY of at least 0.2; false for anything lower.

Determine whether measured ΔOD/MIN SENSITIVITY meets or exceeds 0.2 for COC(=O)c1c2c(c3ccccc3c1O)OC(c1ccccc1)(c1ccc(N3CCOCC3)cc1)C=C2 (stereo not drawn)
true

# bool: ΔOD/MIN SENSITIVITY of COC(=O)c1c2c(c3ccccc3c1OC(C)=O)OC(c1ccccc1)(c1ccc(N(C)C)cc1)C=C2 (stereo not drawn) >= 0.2
true

Can COC(=O)c1c2c(c3ccccc3c1OC(C)=O)OC(c1ccccc1)(c1ccc(N3CCOCC3)cc1)C=C2 (stereo not drawn) be said to have ΔOD/MIN SENSITIVITY at or above 0.2?
true

Could you verify whether the entry `COC(=O)c1c2c(c3ccccc3c1OC(C)=O)OC(c1ccc(N(C)C)cc1)(c1ccc(N(C)C)cc1)C=C2` shows ΔOD/MIN SENSITIVITY of no less than 0.2?
false

Record COC(=O)c1c2c(c3ccccc3c1OC)OC(c1ccccc1)(c1ccc(N3CCOCC3)cc1)C=C2 (stereo not drawn) ; criterion: ΔOD/MIN SENSITIVITY no lower than 0.2. Met?
true

* * *

assay: Photochromic response of test square polymerizates on an optical bench; format: physicochemical; conditions: time for absorbance of the activated form to reach one half the highest absorbance at room temperature (75°F, 23.9°C) after removal of activating light; method 1
Give Condition met when the value for Bleach (T1/2) is at least 3 min. Give Condition not met when it is less.

State whether the measured Bleach (T1/2) reaches 3 min, counting equality as reaching it, for COC(=O)c1c2c(c3ccccc3c1OC(C)=O)OC(c1ccccc1)(c1ccc(N3CCOCC3)cc1)C=C2 (stereo not drawn) [Example 3]
Condition not met

Could you tell me if the measured Bleach (T1/2) of COC(=O)c1c2c(c3ccccc3c1OC(C)=O)OC(c1ccccc1)(c1ccc(N(C)C)cc1)C=C2 (stereo not drawn) [Example 4] reaches 3 min or more?
Condition not met

API: above_or_equal(metric=Bleach (T1/2), cutoff=3 min) for item COC(=O)c1c2c(c3ccccc3c1C)OC(c1ccccc1)(c1ccc(N(C)C)cc1)C=C2 (stereo not drawn) [Example 5]
Condition met

Is Bleach (T1/2) for COC(=O)c1c2c(c3ccccc3c1OC(C)=O)OC(c1ccc(N(C)C)cc1)(c1ccc(N(C)C)cc1)C=C2 [Example 6] at or above 3 min?
Condition not met

Hi team, for COC(=O)c1c2c(c3ccccc3c1O)OC(c1ccccc1)(c1ccc(N3CCOCC3)cc1)C=C2 (stereo not drawn) [Example 1] , is the recorded Bleach (T1/2) at or above 3 min?
Condition met

Does the reported Bleach (T1/2) for COC(=O)c1c2c(c3ccccc3c1OC)OC(c1ccccc1)(c1ccc(N3CCOCC3)cc1)C=C2 (stereo not drawn) [Example 2] fall at or above the 3 min mark?
Condition met

* * *

Could you please report measured LAMBDA MAX (VISIBLE) for the items listed next?
assay: Photochromic response of test square polymerizates on an optical bench; assay type: physicochemical; details: wavelength in the visible spectrum of maximum absorption of the activated (colored) form; diethylene glycol bis(allyl carbonate) composition
Provide a numeric answer; units are not to be included.

Assign LAMBDA MAX (VISIBLE) to the following record: COC(=O)c1c2c(c3ccccc3c1O)OC(c1ccccc1)(c1ccc(N3CCOCC3)cc1)C=C2 (stereo not drawn)
511

Give a short answer stating reported LAMBDA MAX (VISIBLE) for `COC(=O)c1c2c(c3ccccc3c1OC(C)=O)OC(c1ccc(N(C)C)cc1)(c1ccc(N(C)C)cc1)C=C2` .
618

Answer with reported LAMBDA MAX (VISIBLE) of COC(=O)c1c2c(c3ccccc3c1OC(C)=O)OC(c1ccccc1)(c1ccc(N3CCOCC3)cc1)C=C2 (stereo not drawn)
545

Determine from records and report LAMBDA MAX (VISIBLE) for COC(=O)c1c2c(c3ccccc3c1OC(C)=O)OC(c1ccccc1)(c1ccc(N(C)C)cc1)C=C2 (stereo not drawn)
591

Give the value of LAMBDA MAX (VISIBLE) reported for the following: COC(=O)c1c2c(c3ccccc3c1C)OC(c1ccccc1)(c1ccc(N(C)C)cc1)C=C2 (stereo not drawn)
584

Identify the reported LAMBDA MAX (VISIBLE) for the following entry. COC(=O)c1c2c(c3ccccc3c1OC)OC(c1ccccc1)(c1ccc(N3CCOCC3)cc1)C=C2 (stereo not drawn)
541

* * *

Assay: Photochromic response of test square polymerizates on an optical bench
Assay type: physicochemical
Conditions: UV exposure continued for 20 minutes; test squares by method 1; 75°F (23.9°C)
Protocol: Testing was done with the photochromic naphthopyrans of the Examples incorporated or imbibed into test square polymerizates by one of two different methods. […] The quantity of naphthopyran calculated to yield a 1.5 times 10^-3 molal solution was added to a flask containing 50 grams of a monomer blend of 4 parts ethoxylated bisphenol A dimethacrylate (BPA 2EO DMA), 1 part poly(ethyleneglycol) 600 dimethacrylate, and 0.033 weight percent 2,2'-azobis(2-methyl propionitrile) (AIBN). […]
readout label: ΔOD@ SATURATION
Please state the value as a number alone, without comment.

Indicate its recorded ΔOD@ SATURATION; the molecule in question is COC(=O)c1c2c(c3ccccc3c1OC(C)=O)OC(c1ccccc1)(c1ccc(N3CCOCC3)cc1)C=C2 (stereo not drawn) [Example 3]
0.31

Check the records and state ΔOD@ SATURATION for COC(=O)c1c2c(c3ccccc3c1OC(C)=O)OC(c1ccccc1)(c1ccc(N(C)C)cc1)C=C2 (stereo not drawn) [Example 4]
0.30

Return ΔOD@ SATURATION for the following molecule: COC(=O)c1c2c(c3ccccc3c1OC(C)=O)OC(c1ccc(N(C)C)cc1)(c1ccc(N(C)C)cc1)C=C2 [Example 6]
0.07

Specify measured ΔOD@ SATURATION for COC(=O)c1c2c(c3ccccc3c1C)OC(c1ccccc1)(c1ccc(N(C)C)cc1)C=C2 (stereo not drawn) [Example 5] .
0.51

Find the measured ΔOD@ SATURATION of COC(=O)c1c2c(c3ccccc3c1O)OC(c1ccccc1)(c1ccc(N3CCOCC3)cc1)C=C2 (stereo not drawn) [Example 1] and report it.
1.36

Could you please provide reported ΔOD@ SATURATION for COC(=O)c1c2c(c3ccccc3c1OC)OC(c1ccccc1)(c1ccc(N3CCOCC3)cc1)C=C2 (stereo not drawn) [Example 2] ? Thanks!
0.95
